Where do the numbers come from? From the supplement of paper PMC9135407.

Test system: primary human hepatic stellate cells (donor 1)
Assay: scaled lipid accumulation score (0 = DMSO-like, 1 = nortriptyline-like); higher = stronger HSC inactivation (lipid re-accumulation), active = hit call of the paper
Conditions: library stock concentration: 10 mM; 48 h
The whole screen tested about 5,800 compounds, of which about 620 (11%) showed activity.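 The calls were made as follows: active = score above a cut-off or among the top three wells of a plate; in these data no inactive exceeds 0.85.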 For the sample, actives were picked, then their nearest neighbours and some compounds at random.
Possible outcomes: True (active), False (inactive)

>>> assigned_class("CC(Cc1ccccc1)Nc1ncnc2c1ncn2C1OC(CO)C(O)C1O (stereo not drawn) [R(-)-N6-(2-Phenylisopropyl)adenosine]")
"False"
>>> assigned_class("CC(C)N(CCCNC(=O)Nc1ccc(C(C)(C)C)cc1)C[C@H]1O[C@@H](n2ccc3c(N)ncnc32)[C@H](O)[C@@H]1O")
"False"
>>> assigned_class("C#C[C@]1(O)CC[C@H]2[C@@H]3CCC4=CC(=O)CC[C@@H]4[C@H]3CC[C@@]21CC [Levonorgestrel]")
"False"
>>> assigned_class("CC(C)n1cnc2c(NCCc3ccc(O)cc3)nc(-c3csc4ccccc34)nc21 [StemRegenin 1 (SR1)]")
"True"
>>> assigned_class("Nc1nc2[nH]cnc2c(=S)[nH]1 [Thioguanine]")
"False"
>>> assigned_class("NC(=O)c1c(NC(=O)C2CC2)sc2c1CCCC2")
"False"
>>> assigned_class("O=C1CCc2ccc(OCCCCN3CCN(c4cccc(Cl)c4Cl)CC3)cc2N1")
"True"
>>> assigned_class("CN(C)CCCN1c2ccccc2CCc2ccc(Cl)cc21.Cl [Clomipramine HCl]")
"True"
>>> assigned_class("Cc1ccsc1C(=CCCN1CCC[C@@H](C(=O)O)C1)c1sccc1C")
"False"
>>> assigned_class("COc1ccc(F)c(F)c1C(=O)c1cnc(NC2CCN(S(C)(=O)=O)CC2)nc1N")
"False"
>>> assigned_class("C[C@@H]1CC(=O)NN=C1c1ccc(NN=C(C#N)C#N)cc1 [Levosimendan]")
"False"
>>> assigned_class("CN(C)CCCn1cc(C2=C(c3c[nH]c4ccccc34)C(=O)NC2=O)c2ccccc21")
"False"
>>> assigned_class("COc1ccc2cc3[n+](cc2c1OC)CCc1cc2c(cc1-3)OCO2 [Berberine chloride]")
"False"
>>> assigned_class("O=C(Nc1ccc([N+](=O)[O-])cc1O)Nc1ccccc1Br")
"False"
>>> assigned_class("COc1cc(CNC(=O)CCCC/C=C/C(C)C)ccc1O [(E)-Capsaicin]")
"False"
>>> assigned_class("COc1ccc2c(c1)c(C1=C(c3c[nH]c4ccccc34)C(=O)NC1=O)cn2CCCN(C)C")
"False"
>>> assigned_class("C#CC1(O)CC[C@H]2[C@@H]3CCC4=CC(=O)CC[C@@H]4[C@H]3CC[C@@]21CC (some centres undefined) [Norgestrel]")
"False"
>>> assigned_class("N[C@@H](Cc1ccc(F)cc1)C(=O)O [p-Fluoro-L-phenylalanine]")
"False"
>>> assigned_class("S=P(N1CC1)(N1CC1)N1CC1 [Thiotepa]")
"False"
